Biological target: Intestinal-type alkaline phosphatase (Homo sapiens)
Assay: blockers of intestinal alkaline phosphatase activity – biochemical, luminescence, uHTS, primary screen (AID 2544);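 also: plate controls were DMSO wells with enzyme for no effect and no-enzyme buffer wells for full effect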
Details: purified IAP, CDP-Star luminescence, 30 min; at 10 µM; stronger effect = higher value
Screen size: about 330,000 compounds; about 390 (0.12%) were called active. This is one part of a sample in which actives are shown more often than they occur.
measured.metric: inhibition (%)

                           molecular_string  result_unit  value_reported
0    O=C(C[n+]1cc(Br)cc2ccccc21)c1ccc(F)cc1            %            -5.7
1   CCS(=O)(=O)N1CCC(N2CCN(c3ccccc3)CC2)CC1            %              15
2  Cc1cc(C)nc(SCc2nnc(SCC(=O)OC3CCCCC3)o2)n1            %            -7.3
3  CCC(=O)c1ccc(OCC(=O)OCC(=O)NC2CCCCCC2)cc1            %             8.3
4                   COC(=O)c1cc2c(ccn2C)n1C            %            15.7
5        CC(C)Oc1c(Br)cc(Br)cc1/C=N/NC(N)=S            %            14.7

###

Biological target: Intestinal-type alkaline phosphatase (Homo sapiens)
Assay: blockers of intestinal alkaline phosphatase activity – biochemical, luminescence, uHTS, primary screen (AID 2544);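 also: plate controls were DMSO wells with enzyme for no effect and no-enzyme buffer wells for full effect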
Conditions: purified IAP, CDP-Star luminescence, 30 min; at 10 µM; stronger effect = higher value
Out of some 330,000 compounds screened, about 390 (0.12%) were called active. The sample as a whole holds a higher share of actives than the screen did.
Listed below: inhibition values for each entry.
measured.metric: inhibition (%)

>>> print(df.to_string())
                                   compound  measured_metric  value_reported
0  CCOC(=O)N1CCN(S(=O)(=O)c2cc3c(cc2C)NC(=O)CO3)CC1       inhibition            -3.7
1  Cc1cc(Cl)c2oc(C(=O)N3CCC(O)(c4ccccc4)CC3)c(C)c2c1       inhibition           -10.6
2  CCCC(C(=O)NCc1ccco1)N(C(=O)CNS(=O)(=O)c1ccccc1)C1CCCC1 (stereo not given)       inhibition           -14.9
3  CCN(CC(=O)Nc1ccc2c(c1)OCCO2)Cc1cc(=O)oc2cc(C)c(C)cc12       inhibition               5
4  CC(C(=O)N1CCc2ccccc21)N(C)CC(=O)Nc1ccc(F)cc1 (stereo not given)       inhibition            22.6
